# target system: Genome polyprotein (Dengue virus type 2 (strain 16681-PDK53)) (UniProt P29991)
# Sequence (P29991 whole entry, looked up): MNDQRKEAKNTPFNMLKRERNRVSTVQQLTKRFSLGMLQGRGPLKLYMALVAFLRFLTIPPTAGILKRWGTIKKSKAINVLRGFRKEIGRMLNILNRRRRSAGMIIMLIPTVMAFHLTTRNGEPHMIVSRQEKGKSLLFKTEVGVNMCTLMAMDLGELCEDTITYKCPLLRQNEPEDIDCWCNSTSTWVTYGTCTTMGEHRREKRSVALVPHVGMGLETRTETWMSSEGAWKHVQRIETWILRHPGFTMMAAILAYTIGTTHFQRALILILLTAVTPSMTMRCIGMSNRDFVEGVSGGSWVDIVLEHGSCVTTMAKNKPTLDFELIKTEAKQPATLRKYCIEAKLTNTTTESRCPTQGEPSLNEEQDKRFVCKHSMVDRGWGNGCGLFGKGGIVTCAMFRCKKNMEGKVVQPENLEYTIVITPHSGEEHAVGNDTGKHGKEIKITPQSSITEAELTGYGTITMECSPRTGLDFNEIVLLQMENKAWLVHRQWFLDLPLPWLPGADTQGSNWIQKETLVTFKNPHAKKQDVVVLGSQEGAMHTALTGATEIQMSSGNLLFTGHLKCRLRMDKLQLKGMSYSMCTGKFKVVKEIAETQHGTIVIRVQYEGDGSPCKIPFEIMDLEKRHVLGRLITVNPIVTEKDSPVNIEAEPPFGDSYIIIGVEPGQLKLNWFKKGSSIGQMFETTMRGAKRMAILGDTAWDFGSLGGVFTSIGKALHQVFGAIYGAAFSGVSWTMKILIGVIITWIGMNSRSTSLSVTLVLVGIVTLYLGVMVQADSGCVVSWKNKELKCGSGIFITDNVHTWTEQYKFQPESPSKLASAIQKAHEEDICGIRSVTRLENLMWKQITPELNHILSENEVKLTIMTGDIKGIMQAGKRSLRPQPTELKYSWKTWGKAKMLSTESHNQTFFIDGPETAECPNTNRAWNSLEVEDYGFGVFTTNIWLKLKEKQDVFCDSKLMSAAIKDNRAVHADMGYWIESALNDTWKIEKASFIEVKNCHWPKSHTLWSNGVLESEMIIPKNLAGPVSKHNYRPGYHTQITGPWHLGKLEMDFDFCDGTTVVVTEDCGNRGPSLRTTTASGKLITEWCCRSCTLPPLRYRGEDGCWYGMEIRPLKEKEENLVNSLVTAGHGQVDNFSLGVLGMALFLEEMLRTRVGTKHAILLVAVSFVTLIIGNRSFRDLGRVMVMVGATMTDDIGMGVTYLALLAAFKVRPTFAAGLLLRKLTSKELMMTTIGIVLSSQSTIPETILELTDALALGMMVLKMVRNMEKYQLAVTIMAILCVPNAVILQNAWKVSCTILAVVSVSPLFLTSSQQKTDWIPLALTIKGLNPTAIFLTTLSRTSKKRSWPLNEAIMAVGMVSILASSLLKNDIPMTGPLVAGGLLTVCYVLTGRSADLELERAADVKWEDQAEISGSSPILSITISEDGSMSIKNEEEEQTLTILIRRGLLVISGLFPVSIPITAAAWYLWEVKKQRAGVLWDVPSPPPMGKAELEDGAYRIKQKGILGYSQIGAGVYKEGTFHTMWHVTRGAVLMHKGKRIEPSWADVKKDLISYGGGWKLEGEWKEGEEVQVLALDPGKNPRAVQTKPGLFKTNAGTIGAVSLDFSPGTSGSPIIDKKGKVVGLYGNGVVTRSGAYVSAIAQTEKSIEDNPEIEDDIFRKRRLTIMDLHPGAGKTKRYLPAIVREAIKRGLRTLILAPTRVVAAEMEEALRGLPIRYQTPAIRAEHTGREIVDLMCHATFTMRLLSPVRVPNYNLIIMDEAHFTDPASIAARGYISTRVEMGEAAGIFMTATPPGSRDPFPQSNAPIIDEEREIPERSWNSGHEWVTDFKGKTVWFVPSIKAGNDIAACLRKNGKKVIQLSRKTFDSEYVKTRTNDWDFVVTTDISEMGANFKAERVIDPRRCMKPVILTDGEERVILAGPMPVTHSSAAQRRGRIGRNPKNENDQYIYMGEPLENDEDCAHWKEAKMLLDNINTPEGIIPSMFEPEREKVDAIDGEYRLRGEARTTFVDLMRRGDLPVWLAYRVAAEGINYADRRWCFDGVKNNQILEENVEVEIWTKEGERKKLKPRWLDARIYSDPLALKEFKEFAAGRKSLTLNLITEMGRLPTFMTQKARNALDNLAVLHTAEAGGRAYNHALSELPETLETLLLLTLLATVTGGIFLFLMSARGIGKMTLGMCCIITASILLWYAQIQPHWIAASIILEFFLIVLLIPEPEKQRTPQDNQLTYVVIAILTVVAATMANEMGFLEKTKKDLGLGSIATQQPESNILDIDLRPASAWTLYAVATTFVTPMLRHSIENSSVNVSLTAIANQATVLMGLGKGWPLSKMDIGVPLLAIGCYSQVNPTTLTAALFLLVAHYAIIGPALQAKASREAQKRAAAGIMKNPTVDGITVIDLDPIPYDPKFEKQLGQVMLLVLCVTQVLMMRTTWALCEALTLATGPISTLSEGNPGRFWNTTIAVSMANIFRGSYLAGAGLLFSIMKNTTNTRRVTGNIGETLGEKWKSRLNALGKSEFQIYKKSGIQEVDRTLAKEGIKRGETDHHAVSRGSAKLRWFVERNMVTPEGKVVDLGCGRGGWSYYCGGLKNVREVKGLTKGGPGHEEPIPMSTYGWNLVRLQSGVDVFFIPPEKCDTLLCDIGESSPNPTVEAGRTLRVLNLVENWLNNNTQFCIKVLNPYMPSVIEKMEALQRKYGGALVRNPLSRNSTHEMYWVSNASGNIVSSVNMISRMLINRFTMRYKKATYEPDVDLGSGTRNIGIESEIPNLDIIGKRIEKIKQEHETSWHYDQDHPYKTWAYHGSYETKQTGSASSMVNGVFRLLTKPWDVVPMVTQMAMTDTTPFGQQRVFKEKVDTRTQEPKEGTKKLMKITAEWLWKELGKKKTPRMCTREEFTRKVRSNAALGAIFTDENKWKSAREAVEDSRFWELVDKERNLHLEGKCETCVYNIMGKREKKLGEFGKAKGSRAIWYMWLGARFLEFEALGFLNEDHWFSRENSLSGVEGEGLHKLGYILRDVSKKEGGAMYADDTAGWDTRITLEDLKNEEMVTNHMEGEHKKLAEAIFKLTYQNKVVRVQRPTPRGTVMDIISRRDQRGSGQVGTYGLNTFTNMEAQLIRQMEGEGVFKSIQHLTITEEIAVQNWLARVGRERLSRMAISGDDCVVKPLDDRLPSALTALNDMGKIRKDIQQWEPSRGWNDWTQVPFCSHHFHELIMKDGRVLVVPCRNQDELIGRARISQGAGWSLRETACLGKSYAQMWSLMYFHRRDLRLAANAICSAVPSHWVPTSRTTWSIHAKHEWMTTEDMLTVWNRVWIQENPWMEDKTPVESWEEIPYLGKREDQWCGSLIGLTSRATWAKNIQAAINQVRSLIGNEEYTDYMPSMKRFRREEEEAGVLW
# test protocol: flavivirus cap methylation enzyme inhibition – biochemical, confirmation dose response, primary screen (AID 588689)
# measurement context: Dengue-2 NS5 methyltransferase capping enzyme assay, at 25 µM, hits give high values
Out of some 340,000 compounds screened, about 1,000 (0.29%) were called active. These entries were drawn from the full list. Measured potencies and affinities stand elsewhere.
Below, each entry is listed alongside its reported inhibition.
Dear colleague, please return just the value in %, with no unit written.

Query :: State its inhibition for this compound: CCOc1cc(/C=C2/C(=O)ON=C2C)ccc1O
Result :: -24.5

Query :: State its inhibition for this compound: CCOC(=O)c1c(C)oc2c1cc(O)c1ccccc12
Result :: 18.5

Query :: State its inhibition for this compound: Cn1ccnc1SCC(=O)Nc1cc(F)ccc1F
Result :: -1.95

Query :: State its inhibition for this compound: CC1(C)CC(=O)C(=Cc2cn(-c3ccccc3)nc2-c2ccc(Cl)cc2)C(=O)C1
Result :: -1.09

Query :: State its inhibition for this compound: Cc1cccc(S(=O)(=O)Nc2ccc(-n3c(C)nc4ccccc4c3=O)cc2)c1
Result :: -5.8
